Source of measurements: ChEMBL document CHEMBL2029243

target: Serine/threonine-protein kinase B-raf (Homo sapiens, UniProt P15056, V600E)
Sequence (P15056 2-766 V600E limits assumed): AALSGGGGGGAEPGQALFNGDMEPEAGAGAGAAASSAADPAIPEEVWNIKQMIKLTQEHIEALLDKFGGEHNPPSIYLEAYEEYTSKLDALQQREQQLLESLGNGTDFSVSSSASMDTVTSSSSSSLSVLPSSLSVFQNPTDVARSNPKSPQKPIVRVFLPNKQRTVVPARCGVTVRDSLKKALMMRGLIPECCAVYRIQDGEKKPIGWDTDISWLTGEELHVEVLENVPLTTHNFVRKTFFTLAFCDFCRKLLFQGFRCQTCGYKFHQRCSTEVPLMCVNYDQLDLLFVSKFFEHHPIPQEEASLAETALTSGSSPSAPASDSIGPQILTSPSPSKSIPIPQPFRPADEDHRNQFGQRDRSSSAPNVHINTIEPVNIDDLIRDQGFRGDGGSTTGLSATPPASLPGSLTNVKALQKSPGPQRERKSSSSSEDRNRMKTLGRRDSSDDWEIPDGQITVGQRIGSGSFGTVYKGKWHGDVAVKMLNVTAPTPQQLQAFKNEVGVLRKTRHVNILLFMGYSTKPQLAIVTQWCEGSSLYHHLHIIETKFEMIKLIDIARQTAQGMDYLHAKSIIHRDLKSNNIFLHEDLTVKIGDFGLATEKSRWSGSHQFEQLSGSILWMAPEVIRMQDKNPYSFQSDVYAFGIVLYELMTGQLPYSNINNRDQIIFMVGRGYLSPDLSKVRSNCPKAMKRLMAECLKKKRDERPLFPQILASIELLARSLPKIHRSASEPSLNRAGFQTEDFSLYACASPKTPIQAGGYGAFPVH
pIC50: −log10 of the molar value.
Experimental Readout: pIC50

Some molecules with recorded pIC50:
[
  {
    "Chem Smiles": "CCCS(=O)(=O)Nc1ccc(F)c(C(=O)Nc2cnc3cc(-c4cccc(F)c4)nn3c2)c1F",
    "Observed": 7.72
  },
  {
    "Chem Smiles": "CCCS(=O)(=O)Nc1ccc(F)c(C(=O)Nc2cnc3nccn3c2)c1F",
    "Observed": "< 5.00"
  }
]

We now examine a further molecule.
## Input Give the reported pIC50 for `CCCS(=O)(=O)Nc1ccc(F)c(C(=O)Nc2cnc3occc3c2)c1F` (system: Serine/threonine-protein kinase B-raf (Homo sapiens, UniProt P15056, V600E)).
## Output < 5.00

* * *

test: Oral bioavailability in mouse at 30 mg/kg; format: ADME, organism-based; conditions: in vivo
Experimental Readout: bioavailability (%)
Number in %, nothing else.

## Input // lookup bioavailability for `CCCS(=O)(=O)Nc1ccc(F)c(C(=O)Nc2cnc3cc(OC)nn3c2)c1F`
## Output 98

* * *

solubility overview
assay: Aqueous solubility of the compound at pH 1.2; format: physicochemical; conditions: buffer
Answer with a number only, understood to be in µg/mL.

[
  {
    "Chem Smiles": "CCCS(=O)(=O)Nc1ccc(F)c(C(=O)Nc2cnc3[nH]nc(OC)c3c2)c1F",
    "solubility (µg/mL)": 3
  }
]

## Input # get_value(readout='solubility', item= `CCCS(=O)(=O)Nc1ccc(F)c(C(=O)Nc2cnc3cc(OC)nn3c2)c1F` )
## Output 18

* * *

molecular target: Serine/threonine-protein kinase B-raf (Homo sapiens, UniProt P15056, V600E)
Form field: IC50 (one value per entry).
Answer as a quantity: numeral, then unit.

Recorded IC50, per entry:
[
  {
    "Chem Smiles": "CCCS(=O)(=O)Nc1ccc(F)c(C(=O)Nc2cnc3ccnn3c2)c1F",
    "Target Desc": "Serine/threonine-protein kinase B-raf (Homo sapiens, UniProt P15056, V600E)",
    "Observed": "488 nM"
  },
  {
    "Chem Smiles": "CCCS(=O)(=O)Nc1ccc(F)c(C(=O)Nc2cnc3ccccc3c2)c1F",
    "Target Desc": "Serine/threonine-protein kinase B-raf (Homo sapiens, UniProt P15056, V600E)",
    "Observed": "1380 nM"
  },
  {
    "Chem Smiles": "CCCS(=O)(=O)Nc1ccc(F)c(C(=O)Nc2cnc3cc(OCCOC)nn3c2)c1F",
    "Target Desc": "Serine/threonine-protein kinase B-raf (Homo sapiens, UniProt P15056, V600E)",
    "Observed": "110 nM"
  }
]

## Input Tell me reported IC50 for `CCCS(=O)(=O)Nc1ccc(F)c(C(=O)Nc2cnc3cc(OC)nn3c2)c1F` , tested with Serine/threonine-protein kinase B-raf (Homo sapiens, UniProt P15056, V600E).
## Output 68 nM

## Input Missing value: IC50, Serine/threonine-protein kinase B-raf (Homo sapiens, UniProt P15056, V600E), entry `CCCS(=O)(=O)Nc1ccc(F)c(C(=O)Nc2cnc3cc(OC(C)C)nn3c2)c1F` . Fill in?
## Output 449 nM

## Input Checklist item: IC50 tested on Serine/threonine-protein kinase B-raf (Homo sapiens, UniProt P15056, V600E), entry `CCCS(=O)(=O)Nc1ccc(F)c(C(=O)Nc2cnc3cc(N4CCCC4)nn3c2)c1F` , value?
## Output 664 nM

## Input Record `CCCS(=O)(=O)Nc1ccc(F)c(C(=O)Nc2cnc3cc(-c4ccc(F)cc4)nn3c2)c1F` : what is its IC50 with Serine/threonine-protein kinase B-raf (Homo sapiens, UniProt P15056, V600E)?
## Output 54 nM

## Input Record `CCCS(=O)(=O)Nc1ccc(F)c(C(=O)Nc2cnc3cc(CC)nn3c2)c1F` : what is its IC50 with Serine/threonine-protein kinase B-raf (Homo sapiens, UniProt P15056, V600E)?
## Output 228 nM

## Input Could you share what IC50 was measured for `CCCS(=O)(=O)Nc1ccc(F)c(C(=O)Nc2cnc3cc(C)nn3c2)c1F` , tested on Serine/threonine-protein kinase B-raf (Homo sapiens, UniProt P15056, V600E)?
## Output 248 nM

## Input Under Serine/threonine-protein kinase B-raf (Homo sapiens, UniProt P15056, V600E): IC50 value of `CCCS(=O)(=O)Nc1ccc(F)c(C(=O)Nc2cnc3cc(N4CCOCC4)nn3c2)c1F` ?
## Output 315 nM
